read-out: adenosine kinase (ADK) gene, ADK (gene 132); assay: LTEA_HepaRG_ADK: Life Technologies and Expression Analysis (LTEA) Assay for adenosine kinase (ADK) gene using HepaRG (AID 2283471); settings: mRNA level, 48 h; actives raise or lower the signal
Calls of active or inactive are those of the source. Rule for the calls: active = hit-call score of the fitted dose curve at least 0.9, where 1 is the maximum; inactive = score below 0.9.
Outcome codes: active, inactive

{"SMILES TEXT": "C#C[C@]1(O)CC[C@H]2[C@@H]3CCc4cc(O)ccc4[C@H]3CC[C@@]21C", "CLASS": "inactive"}
{"SMILES TEXT": "COC(=O)c1ccc(C(=O)OC)cc1", "CLASS": "inactive"}
{"SMILES TEXT": "C[C@]12CC[C@@H]3c4ccc(O)cc4CC[C@H]3[C@@H]1CC[C@@H]2O", "CLASS": "inactive"}
{"SMILES TEXT": "C=C(C)C(N)=O", "CLASS": "inactive"}
{"SMILES TEXT": "O=C(c1ccc(OCCN2CCCCC2)cc1)c1c(-c2ccc(O)cc2)sc2cc(O)ccc12", "CLASS": "active"}
